# method-summary: Formation of 1,5-cz-[Ln(Lig)] from Lig and Ln^III ions (metal dependent click-zip), MOPS/NaOH buffer pH 7.0, analytical HPLC (Charts 1, 2)
# applied-conditions: Eu^III; after 1 week at 80° C.; MOPS/NaOH buffer pH 7.0
Each entry below carries its recorded conversion to 1,5-cz-[Ln(Lig)], Eu^III.
attribute-measured: conversion to 1,5-cz-[Ln(Lig)], Eu^III

{"chemical-string": "C#Cc1cccc(CN2CCN(CC(=O)O)CCN(Cc3cccc(CN=[N+]=[N-])n3)CCN(CP(=O)(O)O)CC2)n1", "attribute-measured": "conversion to 1,5-cz-[Ln(Lig)], Eu^III", "reported-result": "85%"}
{"chemical-string": "[N-]=[N+]=NCc1cccc(CN2CCN(CC(=O)O)CCN(Cc3cccc(C#CI)n3)CCN(CC(=O)O)CC2)n1", "attribute-measured": "conversion to 1,5-cz-[Ln(Lig)], Eu^III", "reported-result": "5%"}
{"chemical-string": "C#Cc1cccc(CN2CCN(CP(=O)(O)OCC)CCN(Cc3cccc(CN=[N+]=[N-])n3)CCN(CP(=O)(O)OCC)CC2)n1", "attribute-measured": "conversion to 1,5-cz-[Ln(Lig)], Eu^III", "reported-result": "87%"}
{"chemical-string": "[N-]=[N+]=NCc1cccc(CN2CCN(CC(=O)O)CCN(Cc3cccc(C#CC45CC6CC(CC(C6)C4)C5)n3)CCN(CC(=O)O)CC2)n1", "attribute-measured": "conversion to 1,5-cz-[Ln(Lig)], Eu^III", "reported-result": "59%"}
